Biological target: AbeH/Trp (uncultured bacterium, UniProt F6LWA5)
Sequence (F6LWA5 entry or part of it): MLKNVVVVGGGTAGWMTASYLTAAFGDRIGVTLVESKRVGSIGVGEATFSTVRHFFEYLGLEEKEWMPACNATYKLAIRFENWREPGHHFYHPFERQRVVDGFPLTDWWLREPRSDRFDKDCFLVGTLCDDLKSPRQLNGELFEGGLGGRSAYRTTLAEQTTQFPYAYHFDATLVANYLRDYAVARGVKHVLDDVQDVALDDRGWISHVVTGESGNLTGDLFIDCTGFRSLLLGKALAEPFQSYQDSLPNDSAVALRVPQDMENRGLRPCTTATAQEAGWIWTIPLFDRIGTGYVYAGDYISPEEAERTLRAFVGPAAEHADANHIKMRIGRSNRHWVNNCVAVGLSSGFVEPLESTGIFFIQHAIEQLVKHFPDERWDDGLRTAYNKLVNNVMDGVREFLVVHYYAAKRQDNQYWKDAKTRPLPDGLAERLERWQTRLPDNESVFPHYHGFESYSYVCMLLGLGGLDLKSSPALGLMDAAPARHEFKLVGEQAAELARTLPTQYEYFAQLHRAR
Test: FAD fluorescence quenching titration with AbeH preincubated with Trp
Type: binding, uncultured soil actinomycetes
Settings: KD, FAD binding to AbeH/Trp, FAD fluorescence, AbeH preincubated with Trp
Metric: Kd

{"Structure Smiles": "Cc1cc2nc3c(=O)[nH]c(=O)nc-3n(C[C@H](O)[C@H](O)[C@H](O)COP(=O)(O)OP(=O)(O)OC[C@H]3O[C@@H](n4cnc5c(N)ncnc54)[C@H](O)[C@@H]3O)c2cc1C", "Measured Result": "7.7 µM"}

* * *

Biological target: UniProt:M9QSI0
Assay: Isothermal titration calorimetry, ligand into BorH
Type: binding, uncultured soil actinomycetes
Details: ITC; read-out: KD, binding to BorH, ITC
pKd: −log10 of the molar value.
Recorded measurements of pKd, one per entry

{"Structure Smiles": "Cc1cc2nc3c(=O)[nH]c(=O)nc-3n(C[C@H](O)[C@H](O)[C@H](O)COP(=O)(O)OP(=O)(O)OC[C@H]3O[C@@H](n4cnc5c(N)ncnc54)[C@H](O)[C@@H]3O)c2cc1C", "pKd": 4.89}
{"Structure Smiles": "N[C@@H](Cc1c[nH]c2ccccc12)C(=O)O", "pKd": 3.37}

* * *

Molecular target: AbeH/Trp (uncultured bacterium)
Experiment: Isothermal titration calorimetry, FAD into AbeH preincubated with Trp
Format: binding, uncultured soil actinomycetes
Conditions: Apparent KD, FAD binding to AbeH/Trp, ITC, AbeH preincubated with Trp; depends on the Trp:AbeH molar ratio

{"Structure Smiles": "Cc1cc2nc3c(=O)[nH]c(=O)nc-3n(C[C@H](O)[C@H](O)[C@H](O)COP(=O)(O)OP(=O)(O)OC[C@H]3O[C@@H](n4cnc5c(N)ncnc54)[C@H](O)[C@@H]3O)c2cc1C", "Kd / µM": 6.3}

* * *

Target: AbeH (uncultured bacterium)
Test: Isothermal titration calorimetry, ligand into AbeH
Assay type: binding, uncultured soil actinomycetes
Conditions: KD (ITC, Table S3), cell AbeH
Procedure: ITC experiments were performed using a VP-ITC isothermal titration calorimeter (MicroCal) in 20 mM HEPES pH 7.5, 350 mM NaCl, 1 mM ethylenediamine tetraacetic acid (EDTA) and 15% (v/v) glycerol. Solutions of AbeH, BorH, FAD (Chem-Implex), and Trp (Acros Organics) were prepared in the same buffer and degassed under vacuum at 30 °C for 20 min before loading in the syringe or cell. […] Formation of FADH2 by sodium dithionite was verified using absorbance and fluorescence spectrophotometry. […]

{"Molecule": "N[C@@H](Cc1c[nH]c2ccccc12)C(=O)O [Tryptophan, L-tryptophan]", "Kd, µM": 833}

* * *

Target: BorH (uncultured bacterium, UniProt M9QSI0)
Sequence (M9QSI0 1-529): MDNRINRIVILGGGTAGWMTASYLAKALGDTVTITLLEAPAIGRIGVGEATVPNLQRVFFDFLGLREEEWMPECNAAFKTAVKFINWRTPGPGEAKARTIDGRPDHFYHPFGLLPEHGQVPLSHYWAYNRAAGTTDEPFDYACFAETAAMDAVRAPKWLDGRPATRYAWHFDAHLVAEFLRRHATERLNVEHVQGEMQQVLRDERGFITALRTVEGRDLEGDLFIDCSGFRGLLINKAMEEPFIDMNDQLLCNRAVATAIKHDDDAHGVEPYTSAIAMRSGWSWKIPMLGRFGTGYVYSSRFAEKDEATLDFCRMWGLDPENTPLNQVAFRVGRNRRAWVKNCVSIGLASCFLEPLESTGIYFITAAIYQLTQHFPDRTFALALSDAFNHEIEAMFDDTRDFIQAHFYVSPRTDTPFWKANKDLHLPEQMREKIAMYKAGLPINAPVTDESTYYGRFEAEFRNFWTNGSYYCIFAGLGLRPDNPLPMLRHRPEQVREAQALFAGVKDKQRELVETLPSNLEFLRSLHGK
Test: Quenching of BorH intrinsic Trp fluorescence upon FAD titration
Parameters: species or system uncultured soil actinomycetes
Conditions: 100 nM BorH; read-out: KD, FAD binding to BorH, BorH intrinsic Trp fluorescence
pKd: −log10 of the molar value.

{"Structure Smiles": "Cc1cc2nc3c(=O)[nH]c(=O)nc-3n(C[C@H](O)[C@H](O)[C@H](O)COP(=O)(O)OP(=O)(O)OC[C@H]3O[C@@H](n4cnc5c(N)ncnc54)[C@H](O)[C@@H]3O)c2cc1C", "pKd": 5.04}

Value source: paper PMC11840605
